# assay_protocol: Acute toxicity in ICR mouse assessed as survival at 390.6 mg/kg, ip administered as single dose measured for 14 days
# Type: organism-based
# experimental_parameters: in vivo, time 14 day, read-out: Activity
reported_metric: survival at 336 h (%)
Use % as the unit, but write only the number.

Q: Assign survival at 336 h to the following record: O=C1C=CCC/C1=C\c1ccc(OC(F)(F)F)cc1
A: 30

---

# assay_protocol: Acute toxicity in ICR mouse assessed as survival at 312.5 mg/kg, ip administered as single dose measured for 14 days
# Format: organism-based
# experimental_parameters: in vivo, time 14 day, read-out: Activity
reported_metric: survival at 336 h (%)
Use % as the unit, but write only the number.

Q: Assign survival at 336 h to the following record: O=C1C=CCC/C1=C\c1ccc(OC(F)(F)F)cc1
A: 70
